The entries below come with measured bioavailability values attached.
Assay: Pharmacokinetic study in rats
Type: in vivo
Settings: rat, plasma; Sprague-Dawley rats, oral, 10 mg/kg, solution
Procedure: Pharmacokinetic profiles of test articles were evaluated in fasted mouse, Sprague-Dawley rats and Beagle dogs. After dosing, blood samples were collected at each time point. For IV injection group, time points were set at 5, 15, 30 min, and then 1, 2, 4, 8 and 24 hours after dosing. […] Plasma was obtained within 1 hours of blood collection by centrifugation at 8000×g and 4 °C for 6 minutes, and then stored at -20 °C until analyzed by LC/MS/MS for quantification. […]
// unit must come after the numeric part

In [3]: df
Out[3]:
                                   molecule  observed_result
0  [2H]C([2H])([2H])NC(=O)c1cnc(NC(=O)C2CC2)cc1Nc1cnn2ccc([C@H](O)C(F)(F)F)c(OC)c12             8.1%

Next item in the queue.
Asked: Which bioavailability is listed for [2H]C([2H])([2H])NC(=O)c1cnc(NC(=O)C2CC2)cc1Nc1nn(C)c2ccc([C@H](O)C(F)(F)F)c(OC)c12 [Example 49A] ?
Given back: 9.25%

----------
# AUC(0-t) values compiled below
Experiment: Mice colon pharmacokinetic studies
Type: in vivo
Settings: mouse; colonic contents, female Balb/c mice, oral gavage, 10 mg/kg; read-out: Colon content AUC0-24
Number only, in µg·h/mL; omit the unit.

                                   molecule  assay_readout  unit_of_measurement  observed_result
0  [2H]C([2H])([2H])NC(=O)c1cnc(NC(=O)C2CC2)cc1Nc1nn(C)c2ccc([C@H](O)C(F)(F)F)c(OC)c12 [Example 49A]       AUC(0-t)              µg·h/mL             1590

Now consider a different molecule.
Asked: Consider the molecule "[2H]C([2H])([2H])NC(=O)c1cnc(NC(=O)C2CC2)cc1Nc1cnn2ccc([C@H](O)C(F)(F)F)c(OC)c12" and give its measured AUC(0-t).
Given back: 1430

----------
Item-by-item account of solubility kinetic at 2 h
Assay: Kinetic solubility
Format: physicochemical
Conditions: phosphate buffer, pH 7.4, aqueous buffer, kinetic from dmso stock, 100 mM pH 7.4 phosphate buffer, 1% DMSO, room temperature, read-out: Kinetics Solubility_PBS7.4
Remember to quote the unit after the number.

Asked: Entry under review: "[2H]C([2H])([2H])NC(=O)c1cnc(NC(=O)C2CC2)cc1Nc1cnn2ccc(CC(C)(F)F)c(OC)c12" . Reported solubility kinetic at 2 h?
Given back: 15 µM

Asked: # get_value(readout='solubility kinetic at 2 h', item= [2H]C([2H])([2H])O[C@@H](c1ccc2c(c(Nc3cc(NC(=O)C4CC4)ncc3C(=O)OC)nn2C)c1OC)C(F)(F)F [Example 50B] )
Given back: 7.23 µM

----------
Target: TYK2-JH2 domain (Homo sapiens)
Construct: JAK1-JH2 domain or TYK2-JH2 domain enzyme in assay buffer
Sequence (P29597 589-875 limits assumed): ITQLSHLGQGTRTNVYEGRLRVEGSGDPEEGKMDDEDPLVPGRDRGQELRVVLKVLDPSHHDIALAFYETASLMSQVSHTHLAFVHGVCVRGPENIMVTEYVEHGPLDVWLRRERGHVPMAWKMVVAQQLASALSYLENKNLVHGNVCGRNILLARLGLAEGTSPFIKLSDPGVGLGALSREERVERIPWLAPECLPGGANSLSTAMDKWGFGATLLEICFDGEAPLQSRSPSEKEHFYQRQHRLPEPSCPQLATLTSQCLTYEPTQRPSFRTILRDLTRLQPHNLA
Test: Binding activity test for JH2 domain of TYK2 (Tb-antibody/tracer FRET)
Conditions: ratio of JAK1 JH2 to TYK2 JH2 binding IC50
Please use true (1) whenever JAK1/TYK2 selectivity is not below 100, and false (0) whenever it is.

>>> print(df.to_string())
                                   compound             experimental_target  assigned_category
0  COC(=O)c1cnc(NC(=O)C2CC2)cc1Nc1nn(C)c2ccc(C(C)C(F)(F)F)c(OC)c12 (stereo not shown)  TYK2-JH2 domain (Homo sapiens)           true (1)

Asked: Would you say "[2H]C([2H])([2H])OCc1ccc2c(c(Nc3cc(NC(=O)C4CC4)ncc3C(F)(F)CC)nn2C)c1OC" shows JAK1/TYK2 selectivity at minimum 100?
Given back: false (0)

Asked: hey, is JAK1/TYK2 selectivity for this one >= 100? "COC(=O)c1cnc(Nc2ccc(Cl)cn2)cc1Nc1nn(C)c2ccc([C@H](OC)C(F)(F)F)c(OC)c12"
Given back: true (1)

Asked: Item [2H]C([2H])([2H])NC(=O)c1cnc(NC(=O)C2CC2)cc1Nc1nn(C)c2ccc(C(OC)C(F)(F)F)c(OC)c12 (stereo not shown) with JAK1/TYK2 selectivity of 100 or above?
Given back: false (0)

Asked: Check this compound for JAK1/TYK2 selectivity at or above 100: "[2H]C([2H])([2H])NC(=O)c1cnc(NC(=O)C2CC2)nc1Nc1cnn2ccc([C@H](O)C(F)(F)F)c(OC)c12"
Given back: true (1)

Asked: Could you tell me if the measured JAK1/TYK2 selectivity of "CNC(=O)c1nnc(NC(=O)C2CC2)cc1Nc1cn(C)c2cccc(OC)c12" reaches 100 or more?
Given back: false (0)
